Collected Ki for UniProt:P35367 across several studies; molecules listed below.
Ki vs 2000 nM: less than gives 1.0; not less than gives 0.0.

Solved entries:
> print(dat)
                                   molecule  assayed.target  assigned.label
1  CCCCCC(=O)c1ccc(OCCCN2CCN(S(=O)(=O)c3ccc(C#N)cc3)CC2)cc1  UniProt:P35367             0.0
2  CN(C)C[C@@H]1CC2c3ccccc3Oc3ccc(Cl)cc3[C@H]2O1 (stereo not given in full)  UniProt:P35367             1.0
3  COc1ccccc1N1CCN(Cc2cc(CO)c3cccccc2-3)CC1  UniProt:P35367             1.0

Exercise: For this molecule, is Ki lower than 2000 nM? CC(C)N[C@H](C)C(=O)N1CCN(CCCOc2ccc(C(=O)C3CC3)cc2)CC1
Solution: 0.0

Exercise: For this molecule, is Ki lower than 2000 nM? Nc1nc(N2CCNCC2)c2ccc(-c3ccco3)cc2n1
Solution: 0.0

Exercise: For this molecule, is Ki lower than 2000 nM? O=C(c1ccc(-c2nc(=O)o[nH]2)cc1)N1CCC(N2CCC(Oc3ccc(Cl)c(Cl)c3)CC2)CC1
Solution: 1.0

Exercise: For this molecule, is Ki lower than 2000 nM? CN1CCN(c2nc(N)nc3c2CCc2ccccc2-3)CC1
Solution: 0.0

Exercise: For this molecule, is Ki lower than 2000 nM? Cc1nc(N)sc1CCCN/C(N)=N/C(=O)N[C@H](C)c1ccccc1
Solution: 0.0

Exercise: For this molecule, is Ki lower than 2000 nM? Cc1nc(N)sc1CCCN/C(N)=N/C(=O)NC1CCCCC1
Solution: 0.0

Exercise: For this molecule, is Ki lower than 2000 nM? CC1=C(C(=O)NCCCN2CCC(C#N)(c3ccc(F)cc3F)CC2)[C@@H](c2ccc(F)c(F)c2)CC(=O)N1C
Solution: 1.0

----------
Collected Ki for Histamine H1 receptor (Homo sapiens, UniProt P35367) across several studies; molecules listed below.
State just the number; it will be interpreted in µM.

Observe how each entry below is paired with its result.
> print(dat)
                                 smiles.str  quantitative.readout
1       CCCCCCNC(=O)/N=C(\N)NCCCc1sc(N)nc1C                  7.76
2  CN1CCN(c2nc(NCc3ccc(F)cc3)nc3c2CCc2ccccc2-3)CC1                  1.95

Exercise: GET /values?readout=Ki&system=Histamine H1 receptor (Homo sapiens, UniProt P35367)&item= CCCCCC(=O)c1ccc(OCCCN2CCN(C(=O)[C@H](NC(=O)OC(C)(C)C)C(C)C)CC2)cc1
Solution: 3.31

----------
Collected pKi for Histamine H1 receptor (Homo sapiens, UniProt P35367) across several studies; compounds listed below.
Answer as the number alone; pKi is minus log10 of concentration in mol/L.

Observe how each entry below is paired with its result.
> print(dat)
                                   compound  quantitative.readout
1  CCOc1cc(CN2CCC(Nc3nc4cc(NC(=O)C5CCC5)ccc4o3)CC2)ccc1OC                  6.03
2  CN1CCN(c2cc(-c3ccccc3)nc(NCc3ccccc3)n2)CC1                  5.95
3  Cc1nc(N)sc1CCCN/C(N)=N/C(=O)NC(C)c1ccccc1F (centres undefined)                  4.77
4  Cc1nc(N)sc1CCCN/C(N)=N/C(=O)NCC(c1ccccc1)c1ccccc1                  5.28
5  CN(C)C[C@H]1CC2c3ccccc3Sc3ccc(F)cc3[C@H]2O1 (stereo in doubt; 8d)                  9.28

Exercise: Given O=C(O)COc1cccc(C(=O)N2CCC(N3CCC(Oc4ccc(Cl)c(Cl)c4)CC3)CC2)c1 , state its recorded pKi.
Solution: 7.00

Exercise: Given CC(C)(C)OC(=O)N1CCC[C@@H]1C(=O)N1CCN(CCCOc2ccc(C(=O)C3CC3)cc2)CC1 , state its recorded pKi.
Solution: 4.33

Exercise: Given NCCC(=O)N1CCN(CCCOc2ccc(C(=O)C3CC3)cc2)CC1 , state its recorded pKi.
Solution: 4.55

----------
Collected log10 of Ki for Histamine H1 receptor (Homo sapiens, UniProt P35367) across several studies; compounds listed below.
Quick note: numbers are log10 of Ki, with nM as the unit.

Observe how each entry below is paired with its result.
> print(dat)
                                 smiles.str  quantitative.readout
1  CS(=O)(=O)c1cccc(C(=O)N2CC[C@@H](N3CCC(Oc4ccc(Cl)c(Cl)c4)CC3)[C@H](C(=O)O)C2)c1                  2.30
2  Cc1ccc(CNc2nc3c(c(N4CCN(C)CC4)n2)CCc2ccccc2-3)cc1                  3.53
3  C[C@H](C1=C(CCN(C)CC#N)Cc2ccccc21)c1cnccn1                  1.51
4              c1ccc(-c2ccccc2OC2CCNCC2)cc1                  2.50
5    C[C@H](NCc1ccc(OCCCN2CCCCC2)cc1)C(N)=O                  4.50

Exercise: GET /values?readout=log10 of Ki&system=Histamine H1 receptor (Homo sapiens, UniProt P35367)&item= CC1=C(C(=O)NCCCN2CCC(C#N)(c3ccc(F)cc3)CC2)[C@@H](c2ccc(F)c(F)c2)CC(=O)N1
Solution: 1.80

Exercise: GET /values?readout=log10 of Ki&system=Histamine H1 receptor (Homo sapiens, UniProt P35367)&item= CC1=C(C(=O)NCCCN2CCC(C#N)(c3ccc(F)cc3C#N)CC2)[C@@H](c2ccc(F)c(F)c2)CC(=O)N1
Solution: 1.96

Exercise: GET /values?readout=log10 of Ki&system=Histamine H1 receptor (Homo sapiens, UniProt P35367)&item= O=C1C[C@@H](N2CCN(CCCOc3ccc(C(=O)C4CC4)cc3)CC2)N1
Solution: 4.00

Exercise: GET /values?readout=log10 of Ki&system=Histamine H1 receptor (Homo sapiens, UniProt P35367)&item= CCOc1cc(CN2CCC(Nc3nc4ccccc4o3)CC2)ccc1Cl
Solution: 2.42

Exercise: GET /values?readout=log10 of Ki&system=Histamine H1 receptor (Homo sapiens, UniProt P35367)&item= N[C@H](CC1CCCCC1)C(=O)N1CCN(CCCOc2ccc(C(=O)C3CC3)cc2)CC1
Solution: 4.16

----------
Collected pKi for Histamine H1 receptor (Homo sapiens, UniProt P35367) across several studies; molecules listed below.
Answer as the number alone; pKi is minus log10 of concentration in mol/L.

Observe how each entry below is paired with its result.
> print(dat)
                                 smiles.str                            assayed.target  quantitative.readout
1  COc1ccc(CN(CCN(C)CCN2CCN(C(=O)c3cc4cc(Cl)ccc4[nH]3)CC2)c2ccccn2)cc1  Histamine H1 receptor (Homo sapiens, UniProt P35367)                  7.00
2  COc1ccc(S(=O)(=O)n2cc(C)c3cc(Cl)ccc32)cc1NC1CCN(C)CC1  Histamine H1 receptor (Homo sapiens, UniProt P35367)                  6.17
3  Cc1nc(N)sc1CCCN/C(N)=N/C(=S)N[C@H](C)c1ccccc1  Histamine H1 receptor (Homo sapiens, UniProt P35367)                  3.96
4  NC(=O)N(O)CCC#C[C@@H]1CC[C@@H](CN2CCN(C(c3ccc(F)cc3)c3ccc(F)cc3)CC2)O1  Histamine H1 receptor (Homo sapiens, UniProt P35367)                  6.18
5  C[C@H](C1=C(CCN(C)CC2CCOCC2)Cc2ccccc21)c1cnccn1  Histamine H1 receptor (Homo sapiens, UniProt P35367)                  7.82
6  CCNC(=O)c1ccc(-c2ccc3c(c2)CCN(CCN2CCC[C@H]2C)C3=O)cc1  Histamine H1 receptor (Homo sapiens, UniProt P35367)                  5.14
7  O=C(O)c1ccccc1C(=O)N1CCC(N2CCC(Oc3ccc(Cl)c(Cl)c3)CC2)CC1  Histamine H1 receptor (Homo sapiens, UniProt P35367)                  7.60

// next entry
Exercise: GET /values?readout=pKi&system=Histamine H1 receptor (Homo sapiens, UniProt P35367)&item= O=C(CC1CCCCC1)N1CCC(=C2c3ccc(Cl)cc3CCc3cccnc32)CC1
Solution: 6.36

----------
Collected pKi for Histamine H1 receptor (Homo sapiens, UniProt P35367) across several studies; compounds listed below.
Answer as the number alone; pKi is minus log10 of concentration in mol/L.

Observe how each entry below is paired with its result.
> print(dat)
                                   compound  measured.endpoint  quantitative.readout
1  CCCCCC(=O)c1ccc(OCCCN2CCN(C(=O)c3ccco3)CC2)cc1                pKi                  6.40
2  c1ccc(C2CCN(CC3C[C@@H]4c5ccccc5Sc5ccccc5[C@H]4O3)CC2)cc1 (stereo not given in full)                pKi                  7.33
3           c1ccc(Cc2ccccc2OCCN2CCCCCC2)cc1                pKi                  7.20
4  CCCCCC(=O)c1ccc(OCCCN2CCN(C(=O)OC(C)C)CC2)cc1                pKi                  6.51
5    CN1CCN(c2nc(N)nc3cc(-c4ccsc4)ccc23)CC1                pKi                  5.55

Exercise: GET /values?readout=pKi&system=Histamine H1 receptor (Homo sapiens, UniProt P35367)&item= CC(C)(C)[C@@H](N)C(=O)N1CCN(CCCOc2ccc(C(=O)C3CC3)cc2)CC1
Solution: 4.66

Exercise: GET /values?readout=pKi&system=Histamine H1 receptor (Homo sapiens, UniProt P35367)&item= CCCCCNC(=O)/N=C(\N)NCCCc1sc(N)nc1C
Solution: 4.97

Exercise: GET /values?readout=pKi&system=Histamine H1 receptor (Homo sapiens, UniProt P35367)&item= CCCCCC(=O)c1ccc(OCCCN2CCN(C(=O)[C@@H](N)C(C)C)CC2)cc1
Solution: 4.72

Exercise: GET /values?readout=pKi&system=Histamine H1 receptor (Homo sapiens, UniProt P35367)&item= Cc1cc(=O)oc2c(Cl)c(OCCCCN3CCC(c4noc5cc(F)ccc45)CC3)ccc12
Solution: 5.95
